Test system: HEK293T cells carrying the ATF4 luciferase reporter
Test: ATF4-Luc assay (in vitro model of vanishing white matter disease)
Assay type: cell-based
Settings: Homo sapiens, HEK-293T; HEK293T cells with ATF4 luciferase reporter, 1 μg/mL tunicamycin, 7 hours, One Glo luminescence
Experimental: In order to test exemplary compounds of the invention in a cellular context, a stable VWMD cell line was first constructed. […] HEK293T cells carrying the ATF4 luciferase reporter were plated on polylysine coated 384-well plates (Greiner Bio-one) at 30,000 cells per well. […] Luminescence was measured using One Glo (Promega) as specified by the manufacturer. […]
pEC50: −log10 of the molar value.
Assay Readout: pEC50

Worked examples follow.
                                   compound                         target_under_test  assay_readout   measurement
0  Cc1ncc(S(=O)(=O)N2CC(C(=O)NC34CC(NC(=O)COc5ccc(Cl)c(F)c5)(C3)C4)Oc3ccc(Cl)cc32)n1C (stereo not drawn)  HEK293T cells carrying the ATF4 luciferase reporter          pEC50        < 5.70
1  O=C(COc1ccc(Cl)c(F)c1)NC12CC(NC(=O)C3CNc4cc(Cl)ccc4O3)(C1)C2 (stereo not drawn)  HEK293T cells carrying the ATF4 luciferase reporter          pEC50        > 8.00
2  O=C(COc1ccc(Cl)c(F)c1)NC12CC(NC(=O)C3CN(C(=O)C4CC4)c4cc(Cl)ccc4O3)(C1)C2 (stereo not drawn)  HEK293T cells carrying the ATF4 luciferase reporter          pEC50  6.60 to 7.30
3  O=C(COc1ccc(Cl)c(F)c1)NC12CCC(NC(=O)[C@H]3CCc4cc(F)ccc4O3)(CC1)[C@@H](O)C2  HEK293T cells carrying the ATF4 luciferase reporter          pEC50        > 8.00
4  O=C(COc1ccc(Cl)c(F)c1)NC12CC(NC(=O)C3CN(C(=O)c4ccncc4)c4cc(Cl)ccc4O3)(C1)C2 (stereo not drawn)  HEK293T cells carrying the ATF4 luciferase reporter          pEC50  6.30 to 6.60

From here, focus on the item given below.
stdin: If you can, please state the reported pEC50 value of O=C(COc1ccc(Cl)c(F)c1)NC12CC(NC(=O)C3CN(CCO)c4cc(Cl)ccc4O3)(C1)C2 (stereo not drawn) .
stdout: > 8.00

---

compounds and their reported EC50
System: HEK293T cells carrying the ATF4 luciferase reporter
Assay: ATF4-Luc assay (in vitro model of vanishing white matter disease)
Assay type: cell-based
Conditions: Homo sapiens, HEK-293T; HEK293T cells with ATF4 luciferase reporter, 1 μg/mL tunicamycin, 7 hours, One Glo luminescence
Protocol: In order to test exemplary compounds of the invention in a cellular context, a stable VWMD cell line was first constructed. […] HEK293T cells carrying the ATF4 luciferase reporter were plated on polylysine coated 384-well plates (Greiner Bio-one) at 30,000 cells per well. […] Luminescence was measured using One Glo (Promega) as specified by the manufacturer. […]

// worked examples, EC50 included
Compound	EC50
O=C(COc1ccc(Cl)c(F)c1)NC12CC(NC(=O)C3CN(C(=O)C4(F)CC4)c4cc(Cl)ccc4O3)(C1)C2 (stereo not drawn) [Compound 140]	50 to 250 nM
CC(C)(C)OC(=O)CN1C[C@@H](C(=O)NC23CCC(NC(=O)COc4ccc(Cl)c(F)c4)(CC2)C(O)C3)Oc2ccc(Cl)cc21 (stereo in doubt) [Compound 184]	250 to 500 nM
O=C(COc1ccc(Cl)c(Cl)c1)NC12CCC(NC(=O)[C@H]3COc4cc(Cl)ccc4O3)(CC1)C[C@@H]2O [Compound 116]	< 10 nM

stdin: Could you tell me which EC50 is on file for COc1ccc(S(=O)(=O)N2CC(C(=O)NC34CC(NC(=O)COc5ccc(Cl)c(F)c5)(C3)C4)Oc3ccc(Cl)cc32)cc1 (stereo not drawn) [Compound 164] ?
stdout: > 2000 nM

stdin: Next up: O=C(COc1ccc(Cl)c(F)c1)NC12CCC(NC(=O)C3CCc4cc(Cl)ccc4O3)(CC1)[C@@H](O)C2 (stereo partly drawn) [Compound 203]
stdout: < 10 nM

stdin: Now consider COCCC(=O)N1CC(C(=O)NC23CC(NC(=O)COc4ccc(Cl)c(F)c4)(C2)C3)Oc2ccc(Cl)cc21 (stereo not drawn) [Compound 181] and answer again.
stdout: 10 to 50 nM

stdin: Entry to check: O=C(COc1ccc(Cl)c(F)c1)NC12CC(NC(=O)C3CN(S(=O)(=O)c4ccc(F)cc4)c4cc(Cl)ccc4O3)(C1)C2 (stereo not drawn) [Compound 166]
stdout: 500 to 2000 nM

Data origin: patent US20210169892A1
